Assay Target: Stb5 (UniProt P38699)
Sequence: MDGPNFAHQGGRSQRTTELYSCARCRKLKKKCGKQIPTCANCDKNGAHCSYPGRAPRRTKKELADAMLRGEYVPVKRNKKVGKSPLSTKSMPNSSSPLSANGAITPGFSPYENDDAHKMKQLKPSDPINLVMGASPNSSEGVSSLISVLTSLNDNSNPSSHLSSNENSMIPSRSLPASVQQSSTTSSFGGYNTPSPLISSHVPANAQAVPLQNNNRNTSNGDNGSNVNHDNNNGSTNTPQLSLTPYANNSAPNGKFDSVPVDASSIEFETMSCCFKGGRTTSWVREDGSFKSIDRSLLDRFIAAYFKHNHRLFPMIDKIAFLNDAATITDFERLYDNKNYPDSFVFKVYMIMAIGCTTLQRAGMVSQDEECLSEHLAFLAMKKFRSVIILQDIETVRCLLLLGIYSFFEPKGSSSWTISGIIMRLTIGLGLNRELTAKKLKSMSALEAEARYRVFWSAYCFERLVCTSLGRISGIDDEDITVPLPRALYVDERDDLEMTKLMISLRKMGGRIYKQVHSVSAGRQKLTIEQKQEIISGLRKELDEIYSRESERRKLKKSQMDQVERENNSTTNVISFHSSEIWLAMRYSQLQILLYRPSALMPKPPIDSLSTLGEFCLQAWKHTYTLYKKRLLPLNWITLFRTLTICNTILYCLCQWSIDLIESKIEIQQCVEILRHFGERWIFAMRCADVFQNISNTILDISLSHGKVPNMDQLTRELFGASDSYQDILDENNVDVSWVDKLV
Assay Method Text: PBM E-score (8-mer binding enrichment) (E-score (-0.5 to 0.5)); higher = stronger / more preferred TF binding
Condition Info: protein concentration: 200 nM; construct: GST-full length
Over roughly 33,000 sequences, “E-score (-0.5 to 0.5)” has its median near -0.054; the highest 2% begin near 0.35. The full list was thinned out, with the highest values kept by preference.
Let's look at some sequences and their measured PBM E-score.

{"Construct Sequence": "ACCTGACA", "PBM E-score": -0.145}
{"Construct Sequence": "AGTAGTTG", "PBM E-score": -0.0997}
{"Construct Sequence": "ACCCCGCG", "PBM E-score": 0.367}
{"Construct Sequence": "GACCGCTA", "PBM E-score": 0.359}
{"Construct Sequence": "CGCCGGCA", "PBM E-score": 0.354}
{"Construct Sequence": "CGGCGCCG", "PBM E-score": 0.309}
{"Construct Sequence": "ATATCCCC", "PBM E-score": 0.395}
{"Construct Sequence": "AACACCGT", "PBM E-score": 0.472}
{"Construct Sequence": "AACACCAT", "PBM E-score": 0.0943}
{"Construct Sequence": "ACTTGCAT", "PBM E-score": 0.0144}
{"Construct Sequence": "AGGGAGCG", "PBM E-score": -0.0929}
{"Construct Sequence": "CAGCTGGG", "PBM E-score": -0.0897}
{"Construct Sequence": "CGCCCCGA", "PBM E-score": 0.328}
{"Construct Sequence": "AGCCGCTG", "PBM E-score": 0.14}
{"Construct Sequence": "CGGACATA", "PBM E-score": 0.474}
{"Construct Sequence": "AAGGACGG", "PBM E-score": 0.162}
{"Construct Sequence": "ATATGTCG", "PBM E-score": 0.083}
{"Construct Sequence": "ACCTCCGG", "PBM E-score": 0.372}
{"Construct Sequence": "TACACCAA", "PBM E-score": -0.128}
{"Construct Sequence": "ATGAAACG", "PBM E-score": 0.067}
{"Construct Sequence": "CACCGCTG", "PBM E-score": 0.405}
{"Construct Sequence": "ATATGTCC", "PBM E-score": 0.406}
{"Construct Sequence": "CCTTCCCG", "PBM E-score": -0.125}
{"Construct Sequence": "TACACCGA", "PBM E-score": 0.414}
{"Construct Sequence": "TGGACACA", "PBM E-score": -0.0717}
{"Construct Sequence": "ATATACCG", "PBM E-score": 0.34}
{"Construct Sequence": "GCCCCGCA", "PBM E-score": 0.262}
{"Construct Sequence": "AAGTTGGT", "PBM E-score": -0.133}
{"Construct Sequence": "ATATTCCG", "PBM E-score": 0.171}
{"Construct Sequence": "AACCGCTG", "PBM E-score": 0.0244}
{"Construct Sequence": "CTATAATC", "PBM E-score": 0.019}
{"Construct Sequence": "AAGGAGGT", "PBM E-score": -0.0343}
{"Construct Sequence": "CCAATTCA", "PBM E-score": -0.261}
{"Construct Sequence": "GACCGCGA", "PBM E-score": 0.31}
{"Construct Sequence": "ACCTCCGT", "PBM E-score": 0.302}
{"Construct Sequence": "AACCGCTA", "PBM E-score": 0.0216}
{"Construct Sequence": "CTATGTCC", "PBM E-score": 0.232}
{"Construct Sequence": "AACATCGC", "PBM E-score": 0.0424}
{"Construct Sequence": "GGCCGGCC", "PBM E-score": 0.15}
{"Construct Sequence": "CTTGTCTA", "PBM E-score": -0.11}
{"Construct Sequence": "ACCTCCGA", "PBM E-score": 0.364}
{"Construct Sequence": "CGGAGACA", "PBM E-score": 0.398}
{"Construct Sequence": "GCGCGAAA", "PBM E-score": 0.0664}
{"Construct Sequence": "ACACTTAA", "PBM E-score": -0.117}
{"Construct Sequence": "AGCCCCCG", "PBM E-score": 0.173}
{"Construct Sequence": "TACCGCTA", "PBM E-score": 0.306}
{"Construct Sequence": "ATATTCCC", "PBM E-score": 0.372}
{"Construct Sequence": "GCGCTAGA", "PBM E-score": 0.112}
{"Construct Sequence": "AGGTTCAC", "PBM E-score": -0.164}
{"Construct Sequence": "AGCCCCCC", "PBM E-score": -0.282}
{"Construct Sequence": "CGGACACG", "PBM E-score": 0.232}
{"Construct Sequence": "AAAGACCC", "PBM E-score": 0.0704}
{"Construct Sequence": "GCCACCGA", "PBM E-score": 0.139}
{"Construct Sequence": "AGCCCGCT", "PBM E-score": 0.317}
{"Construct Sequence": "TACACCTA", "PBM E-score": -0.109}
{"Construct Sequence": "GACCGCAA", "PBM E-score": 0.248}
{"Construct Sequence": "CGGACGTA", "PBM E-score": 0.407}
{"Construct Sequence": "AGGCATCC", "PBM E-score": -0.261}
{"Construct Sequence": "CGGAGACG", "PBM E-score": 0.166}
{"Construct Sequence": "ATTTATTG", "PBM E-score": -0.0662}
{"Construct Sequence": "GGGATCTA", "PBM E-score": 0.0662}
{"Construct Sequence": "TCCTCCGA", "PBM E-score": 0.157}
{"Construct Sequence": "ACACCTCC", "PBM E-score": 0.0978}
{"Construct Sequence": "TGTCGGAA", "PBM E-score": 0.26}
{"Construct Sequence": "GGCCGGCA", "PBM E-score": 0.289}
{"Construct Sequence": "GGGATATA", "PBM E-score": 0.272}
{"Construct Sequence": "AGCCGGCG", "PBM E-score": 0.248}
{"Construct Sequence": "AACACCCT", "PBM E-score": -0.128}
{"Construct Sequence": "TCGCTCCA", "PBM E-score": -0.126}
{"Construct Sequence": "CCCCCGCC", "PBM E-score": 0.313}
{"Construct Sequence": "GGGACATA", "PBM E-score": 0.132}
{"Construct Sequence": "AGCCCCGA", "PBM E-score": 0.397}
{"Construct Sequence": "GGGATGTA", "PBM E-score": -0.0169}
{"Construct Sequence": "CGGACGTC", "PBM E-score": 0.0917}
{"Construct Sequence": "CGGATTTC", "PBM E-score": 0.223}
{"Construct Sequence": "CGGATCTC", "PBM E-score": 0.103}
{"Construct Sequence": "GTTAACCA", "PBM E-score": -0.181}
{"Construct Sequence": "CTATCCCC", "PBM E-score": 0.276}
{"Construct Sequence": "GGCTCTTA", "PBM E-score": 0.0283}
{"Construct Sequence": "AGCCCCGC", "PBM E-score": 0.421}
{"Construct Sequence": "CAGCAATA", "PBM E-score": -0.0729}
{"Construct Sequence": "GCCCTTAA", "PBM E-score": 0.191}
{"Construct Sequence": "ATAACCCC", "PBM E-score": 0.412}
{"Construct Sequence": "CGCCGGCG", "PBM E-score": 0.428}
{"Construct Sequence": "CTATACCC", "PBM E-score": 0.229}
{"Construct Sequence": "CGCCGGCC", "PBM E-score": 0.391}
